Can you tell me inhibition for the items I'm about to list?
# experimental system: Nuclear receptor subfamily 0 group B member 1 (Homo sapiens)
# test: DAX1 (NR0B1) inhibitors, primary screen, cell-based, HEK293, Gal4-DAX1, luciferase luminescence (AID 504766);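 note: 0% = DAX1-transfected cells with DMSO and 100% = empty-vector control cells with DMSO; inhibition shows as a rise in luminescence from relieved DAX1 repression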
# condition summary: HEK293 Gal4-DAX1 luciferase reporter, at 6.75 µM, hits give high values
About 3,400 (1%) of roughly 340,000 compounds were called active. The sample as a whole holds a higher share of actives than the screen did.
Write the number in % without appending the unit.

Query: Looking for the measured inhibition of Cn1c(=O)n(C)c2cc(/C=N/NC(=O)c3cccc(Br)c3)ccc21 , can you help?
Result: -2.01

Query: For the compound CCCc1c(C)nc2scc(-c3ccc(Cl)cc3)n2c1=O , what inhibition is on record?
Result: 1.4

Query: Tell me the measured inhibition of O=C(Nc1ccc2c(c1)OCO2)c1ccc(N2C(=O)c3ccccc3C2=O)cc1 , please.
Result: 0.86

Query: Which inhibition value is on record for CN1CCN(/N=C/c2ccc(-c3ccc([N+](=O)[O-])cc3)o2)CC1 ?
Result: 4.57

Query: # query: inhibition of entry O=C(CN1CCN(c2ccccc2F)CC1)c1ccc2c(c1)OCO2
Result: -0.06

Query: Item CN1OC[C@@H]2CN(C(=O)c3ccc(-c4ccccc4)cc3)[C@H](c3ccc(-c4cccc(F)c4)cc3)C[C@@H]21 has what recorded inhibition?
Result: -0.68

Query: Quick one: inhibition of O=C(Nc1ccccc1F)c1ccc2c(c1)OCO2 ?
Result: 4.59

Query: If you can, please state the reported inhibition value of C[C@H]1CN([C@@H](C)CO)C(=O)c2cc(-c3ccccc3F)cnc2O[C@H]1CN(C)C(=O)C1CCOCC1 .
Result: 1.09

* * *

# experimental system: Nuclear receptor subfamily 0 group B member 1 (Homo sapiens) (UniProt P51843)
# Sequence (P51843 207-470 limits assumed): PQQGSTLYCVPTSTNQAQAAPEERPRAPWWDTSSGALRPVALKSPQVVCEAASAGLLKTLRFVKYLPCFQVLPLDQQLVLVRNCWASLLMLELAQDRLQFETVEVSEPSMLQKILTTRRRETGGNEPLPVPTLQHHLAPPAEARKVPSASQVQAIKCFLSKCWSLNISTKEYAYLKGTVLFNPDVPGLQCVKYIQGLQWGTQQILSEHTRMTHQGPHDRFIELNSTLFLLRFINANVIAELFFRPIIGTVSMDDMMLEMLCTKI
# test: DAX1 (NR0B1) inhibitors, primary screen, cell-based, HEK293, Gal4-DAX1, luciferase luminescence (AID 504766);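 note: 0% = DAX1-transfected cells with DMSO and 100% = empty-vector control cells with DMSO; inhibition shows as a rise in luminescence from relieved DAX1 repression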
# condition summary: HEK293 Gal4-DAX1 luciferase reporter, at 6.75 µM
Among all 340,000 compounds or so, about 3,400 (1%) were called active.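 The calls were made as follows: active = inhibition above the mean over all tested compounds plus 3 SD (cut at about 4.2% in these data); inactive = the rest.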 The sample as a whole holds a higher share of actives than the screen did.
Use one of these outcomes when replying: T = active, F = inactive

Query: Which outcome was entered for the compound CN(C)c1ccc(-c2nnc(-c3cccnc3)o2)cc1 in this test?
Result: F

Query: Test call for this compound, please: CC1(C)CC(=O)C/C(=N\NC(=O)c2cccs2)C1
Result: F

Query: In this assay, the call recorded for COc1ccc(CCNC(=O)CSc2nnc3ccc(-c4ccncc4)nn23)cc1 was what?
Result: F

Query: What did the test return for COC(=O)c1ccccc1N=NNc1ccc([N+](=O)[O-])cc1 ?
Result: F

Query: What did this assay record as the result for O=C(CSc1nc2ccccc2s1)Nc1ccc(C(=O)O)cc1 ?
Result: T

Query: Assay result, entry CCCOC(=O)Cc1c(O)c2ccccc2[nH]c1=O — outcome?
Result: F

Query: For O=C(CSc1ncn[nH]1)Nc1nc2c(F)c(F)c(F)cc2s1 , which call appears in the assay record?
Result: F

Query: Status in this test for O=C(Nc1ccc2ccccc2c1)/C(=C\c1ccc2c(c1)OCO2)NC(=O)c1ccco1 ?
Result: F

Query: Given Clc1ccc(Nc2ccc3ccccc3n2)cc1 , state the outcome it received in this test.
Result: T

Query: Write down the call the test reported for this compound. Item: Cc1cccc(OCC(=O)Nc2ccccc2F)c1
Result: T

Query: Which outcome was assigned to CCN(CC)C(=O)C1=C(C)N(Cc2ccc(F)cc2)C(=O)C(CC(=O)NCc2cccc3ccccc23)C1 (stereo unspecified) in this test?
Result: F

Query: // param item: CCN(CC)C(=O)C(=O)Nc1cccc(Br)c1 ; yields the recorded call
Result: F

Query: Kindly provide the recorded test outcome for the following compound: Cc1csc(SCC(=O)Nc2ccc(C)c(S(=O)(=O)N(C)C)c2)n1
Result: F

Query: Hi team, can someone confirm the assay call for CCN(CC)N=Nc1cccc(NC(C)=O)c1 ?
Result: T

Query: For FC(F)(F)c1ccnc(Oc2ccc(C3=NCCS3)cc2)c1 , which call appears in the assay record?
Result: T

Query: Short answer needed: outcome of this test for O=C(CNC(=O)N1CC(=O)Nc2ccccc21)Nc1ccc(Br)cc1F ?
Result: F

Query: What call does the record list for Cc1cccc(C(=O)OCC(=O)Nc2sccc2C(N)=O)c1C ?
Result: F

Query: # outcome recorded in this test, key = NC(=O)CSc1nnc(-c2cccc(S(=O)(=O)N3CCOCC3)c2)o1
Result: F

Query: I'd appreciate the recorded outcome for COc1ccc(-c2nnc(-c3ccc4ccccc4c3)o2)cc1 from this test.
Result: F

Query: How did this test come out for CCn1c(COc2ccccc2)nnc1SCC(=O)Nc1ccc2c(c1)OCCO2 ?
Result: F

Query: State the result this test recorded for Cc1cccc(/C(N)=N/OC(=O)c2ccccc2Cl)c1 .
Result: T

Origin of values: PubChem BioAssay AID504766
